Recorded half-life, one value per entry.
Assay info: Decomposition kinetics monitored by UV-Vis spectroscopy
Assay type: physicochemical
Conditions used: PBS, pH 7.4, Condition A: pH 7.4, 37° C., 0.1M PBS, 100 μL DTPA, air (UV/Vis)

{"Molecule": "CO/N=C(\\C)C1(NO)C(=O)N(C)N=C1C (centres unmarked)", "half-life (min)": 23}
{"Molecule": "CO/N=C(\\C)C1(NO)C(=O)N(c2ccccc2)N=C1C (centres unmarked)", "half-life (min)": 9.5}

* * *

Assay info: Decomposition monitored by 1H NMR spectroscopy (carbanion yield, kinetics, half-life)
Assay type: physicochemical
Conditions used: PBS, pH 7.4, Condition C: pH 7.4, 37° C., 10% D2O, 0.25M PBS, 100 μL DTPA, BME (20 equiv.), argon (1H NMR)

{"Molecule": "CC1=NN(c2ccccc2)C(=O)C1(C)NO (stereo not shown)", "Unit text": "min", "half-life": 1680}

These entries and their values trace back to patent US9499511B2.
